# Test system: PSMA-expressing LNCAP cancer xenografts
# test.method.notes: Biodistribution and tumor-to-background contrast ratios of 18F-labeled tracers
# Type: in vivo, mouse (NODSCID 1L2RγKO male mice)
# details: 1 h
Property: Biodistribution Adrenal glands; scope: individual molecules
measured.property: Biodistribution Adrenal glands (% ID/g)

molecule	measured.property	reported
C[N+](C)(Cc1ccc(C(=O)NCCCC[C@H](NC(=O)N[C@@H](CCC(=O)O)C(=O)O)C(=O)O)cc1)C[B-](F)(F)[18F] [F-18 HTK-01069]	Biodistribution Adrenal glands	4.77
C[N+](C)(Cc1cn(CC(=O)NC[C@H]2CC[C@H](C(=O)N[C@@H](Cc3ccc4ccccc4c3)C(=O)NCCCC[C@H](NC(=O)N[C@@H](CCC(=O)O)C(=O)O)C(=O)O)CC2)nn1)C[B-](F)(F)[18F] [^18F-HTK01157]	Biodistribution Adrenal glands	2.89
C[N+](C)(Cc1cn(Cc2ccc(C(=O)NCCCC[C@H](NC(=O)N[C@@H](CCC(=O)O)C(=O)O)C(=O)O)cn2)nn1)C[B-](F)(F)[18F] [^18F-HTK01130]	Biodistribution Adrenal glands	1.46

----------
# System: PSMA-expressing LNCAP cancer xenografts
# test.method.notes: Biodistribution and tumor-to-background contrast ratios of 18F-labeled tracers
# Format: in vivo, mouse (NODSCID 1L2RγKO male mice)
# details: 1 h
# Experimental: LNCap cell line was obtained from ATCC (LNCaP clone FGC, CRL-1740). It was established from a metastatic site of left supraclavicular lymph node of human prostatic adenocarcinoma. […] The collected cells number was counted with a Hausser Scientific (Horsham, Pa.) Hemacytometer. […] PET imaging experiments were conducted using Siemens Inveon micro PET/CT scanner. […] Then, a 10-min static PET imaging was performed to determined uptake in tumor and other organs. […]
Property: Biodistribution Lungs; scope: individual compounds

compound	Biodistribution Lungs
C[N+](C)(Cc1cn(Cc2ccc(C(=O)NCCCC[C@H](NC(=O)N[C@@H](CCC(=O)O)C(=O)O)C(=O)O)cc2)nn1)C[B-](F)(F)[18F] [F-18 HTK-01070]	1.39 ± 0.17 % ID/g
O=C(O)CC[C@H](NC(=O)N[C@@H](CCCCNC(=O)c1ccc(Cn2cc(C[n+]3ccc([B-](F)(F)[18F])cc3)nn2)nc1)C(=O)O)C(=O)O [^18F-PSMA PyrBF3]	1.67 ± 0.47 % ID/g
C[N+](C)(Cc1cn(CC(=O)NCCOCCOCCC(=O)N[C@@H](Cc2ccc3ccccc3c2)C(=O)NCCCC[C@H](NC(=O)N[C@@H](CCC(=O)O)C(=O)O)C(=O)O)nn1)C[B-](F)(F)[18F] [^18F-HTK01146]	0.40 ± 0.13 % ID/g
C[N+](C)(Cc1cn(CC(=O)NC[C@H]2CC[C@H](C(=O)N[C@@H](Cc3ccc4ccccc4c3)C(=O)NCCCC[C@H](NC(=O)N[C@@H](CCC(=O)O)C(=O)O)C(=O)O)CC2)nn1)C[B-](F)(F)[18F] [^18F-HTK01157]	1.21 ± 0.48 % ID/g
O=C(O)CC[C@H](NC(=O)N[C@@H](CCCCNC(=O)[C@H](Cc1ccc2ccccc2c1)NC(=O)[C@H]1CC[C@H](CNC(=O)Cn2cc(C[n+]3ccc([B-](F)(F)[18F])cc3)nn2)CC1)C(=O)O)C(=O)O [^18F-PSMA-617-PyrBF3]	1.06 ± 0.23 % ID/g
C[N+](C)(Cc1cn(Cc2ccc(C(=O)NCCCC[C@H](NC(=O)N[C@@H](CCC(=O)O)C(=O)O)C(=O)O)cn2)nn1)C[B-](F)(F)[18F] [^18F-HTK01130]	0.75 ± 0.10 % ID/g
C[N+](C)(Cc1ccc(C(=O)NCCCC[C@H](NC(=O)N[C@@H](CCC(=O)O)C(=O)O)C(=O)O)cc1)C[B-](F)(F)[18F] [F-18 HTK-01069]	1.37 ± 0.36 % ID/g
